Experiment: Pharmacokinetic study of RPDQ in rats after intragastric and intravenous administration (UPLC-MS/MS of plasma)
Assay type: in vivo, Wistar rats
Conditions: both sexes, Wistar, rat, plasma, po; rats, 24 mg/kg intragastric
Assay Endpoint: AUC(0-inf) (ng·h/mL)
The figure you give is taken to be in ng·h/mL; do not add the unit.

The molecule listed as CC(C)(O)[C@@H]1CC[C@@](C)([C@H]2CC[C@]3(C)[C@@H]2[C@H](O[C@@H]2O[C@H](CO)[C@@H](O)[C@H]2O)C[C@@H]2[C@@]4(C)CC[C@H](O)C(C)(C)[C@@H]4CC[C@]23C)O1 [RPDQ] has a reported AUC(0-inf) of 42600
